The measured values listed here are drawn from ChEMBL document CHEMBL4513216.

So I've got a bunch of molecules here, and I need their cytotoxicity at 10 µM values.
EXPERIMENTAL_DETAILS: Toxicity liver stage against HepG2, at 10uM
Format: cell-based
Design: test concentration 10 uM, cell line HepG2-A16-CD81EGFP
TEST_PARAMETERS: human, HepG2-A16-CD81EGFP cells; read-out: INHIBITION
One number for each entry, in %.

Past entries and their recorded results:
molecule=CN1CCN(C(=O)c2cc3sccc3n2Cc2ccccc2Cl)CC1 unit_name=% value_measured=2.3
molecule=COc1cccc(CNC[C@H]2COCc3nc4cccnc4n32)n1 unit_name=% value_measured=-1.57
molecule=Cc1ncc(CNC(C)(C)CO)c2cc(C(=O)c3ccc(Br)cc3)oc12 unit_name=% value_measured=12.7

Working through the 4 molecules below one at a time, give cytotoxicity at 10 µM for each.
1. CN(Cc1ccsc1)C(=O)c1n[nH]c(N)c1-c1ccccc1
2. CCOC1COC2(CCN(Cc3ccc(C)cc3)CC2)C1 (centres undefined)
3. CC(NC(=O)CCCc1ccc(Cl)cc1)c1nnn[nH]1 (centres undefined)
4. Cc1cnc2n(c1=O)C(CC(=O)NCc1cccnc1)CS2 (centres undefined)

1. -6.27
2. -8.28
3. 0.292
4. 4.22

Working through the 8 molecules below one at a time, give cytotoxicity at 10 µM for each.
1. CC(C)c1noc(CCC(=O)NC(C)c2nnc3n2CCC3)n1 (centres undefined)
2. CCCC(O)CN1CCC(=O)N(CCOC)Cc2ccccc21 (centres undefined)
3. CC(C)(C)NC(=O)NC(=O)COc1nc(C(C)(C)C)no1
4. CC(C)CN(CC(O)c1ccccc1)C(=O)Nc1nccs1 (centres undefined)
5. Cc1cc(C(=O)Nc2ccn(CCCN3CCCC3)n2)no1
6. COc1ncc(C2(O)CCN(Cc3cc(F)cc(F)c3)CC2)c(OC)n1
7. c1cnc(N2CCOCC3(CCCN(CC4CC4)C3)C2)cn1 (centres undefined)
8. CCCn1[nH]c(CNc2cccc(Cl)c2)nc1=O

1: 2.59; 2: 3.23; 3: -1.62; 4: -1.96; 5: -4.13; 6: 0.331; 7: -15.8; 8: 0.566

Working through the 6 molecules below one at a time, give cytotoxicity at 10 µM for each.
1. c1cnn(CC2CCCCN2Cc2cn3ccsc3n2)c1 (centres undefined)
2. c1csc(-c2nc(CN3CCCCC3Cn3cccn3)co2)c1 (centres undefined)
3. c1cc(CN2CCOC3(CCCC3)C2)no1
4. CN(C)S(=O)(=O)N1CCOCC1CC(=O)NCCOc1ccccc1 (centres undefined)
5. O=C(O)[C@@H]1CN(C(=O)CSCCN2CCCC2)C[C@H]1c1ccccc1
6. COc1cccc(CN2CC(O)CN(C(=O)C(C)(C)C)CC2=O)c1OC (centres undefined)

1. -7.08
2. 3.22
3. -8.29
4. 2.38
5. -12.1
6. -57.6

----------
EXPERIMENTAL_DETAILS: Toxicity liver stage against HepG2, at 10uM
Type: cell-based
Design: test concentration 10 uM, cell line HepG2-A16-CD81EGFP
TEST_PARAMETERS: human, HepG2-A16-CD81EGFP cells; read-out: INHIBITION
READOUT_TYPE: cytotoxicity at 10 µM (%)
One number for each entry, in %.

compound=CS(=O)(=O)NC1CCN(CCc2ccccc2)CC1 value_measured=-1.76
compound="CC(CC(=O)N1CCN(c2cnccn2)CC1)c1ccc(F)cc1 (stereo unspecified)" value_measured=-48
compound="COc1cccc(C2CCCN2C(=O)c2ccc(=O)n(C)c2)c1 (stereo unspecified)" value_measured=-1.72
compound="Cc1nc(C2CCCN(C(=O)c3cnn(C(C)(C)C)c3)C2)no1 (stereo unspecified)" value_measured=0.818
compound=Cc1ccc(-c2noc(Cn3nc(C(N)=O)ccc3=O)n2)cc1 value_measured=-1.6
compound=CC(C)N(C)C(=O)c1coc(CN2CCN(c3ccccc3F)CC2)n1 value_measured=7.31

Working through the 5 compounds below one at a time, give cytotoxicity at 10 µM for each.
1. COC(=O)c1ccc(CNC2CC(=O)N(Cc3cccc(F)c3)C2)cc1 (stereo unspecified)
2. CCn1ccnc1CN1CCCN(CC2CC2)C(C(C)C)C1 (stereo unspecified)
3. Cc1cccc(S(=O)(=O)N2CCC3(CC2)CC(N(C)C)CO3)c1 (stereo unspecified)
4. Cc1cc(C(=O)Nc2ccc(CN3CCOCC3)cn2)n(C)n1
5. CO[C@H]1CCN(C(=O)Cc2ccc(F)cc2)[C@H]1Cc1ccncc1

1: 4.43; 2: 2.63; 3: -126; 4: 3.86; 5: 5.55

----------
EXPERIMENTAL_DETAILS: Toxicity liver stage against HepG2, at 10uM
Type: cell-based
Parameters: test concentration 10 uM, cell line HepG2-A16-CD81EGFP
TEST_PARAMETERS: human, HepG2-A16-CD81EGFP cells; read-out: INHIBITION
READOUT_TYPE: cytotoxicity at 10 µM (%)
Give bare numbers, in %.

Past entries and their recorded results:
molecule=c1ccc2c(Cc3nnc([C@H]4CCNC4)o3)c[nH]c2c1 unit_name=% value_measured=-0.762
molecule="c1cnc(N2CCCC(c3cc4cccnc4[nH]3)C2)nc1 (configuration not stated)" unit_name=% value_measured=-9.42
molecule=CC(C)N1CCC(NCc2cccnc2N(C)C)CC1 unit_name=% value_measured=21

Working through the 6 molecules below one at a time, give cytotoxicity at 10 µM for each.
1. C[S+]([O-])CCCNC(=O)c1cc(Br)c2c(c1)OCCO2 (configuration not stated)
2. COCCCN(C)Cc1nc2c(cnn2C)c(=O)[nH]1
3. c1cncc(CN2CCC3(COCCN(C4CCOCC4)C3)C2)c1 (configuration not stated)
4. CCCS(=O)(=O)N1CCc2c(COCC)cncc2C1
5. O=C(O)c1cc(-c2cn[nH]c2)cc(S(=O)(=O)N2CCSCC2)c1
6. N#Cc1ccc(Cl)cc1NCC1CC1

1: 16.9; 2: -4.2; 3: 1.46; 4: 8.76; 5: -8.26; 6: -3.7

Working through the 3 molecules below one at a time, give cytotoxicity at 10 µM for each.
1. COc1cc(N2CC[C@@H](O)[C@@H]2Cc2ccccc2)ncn1
2. O=C(N1CCCO1)[C@@]12CCO[C@@H]1CCN(Cc1cccnc1)C2
3. O=C(c1ccc2c(c1)CCC2)N1CCCCC1C1OCCO1 (configuration not stated)

1: -52.1; 2: -4.26; 3: 0.197

----------
So I've got a bunch of compounds here, and I need their cytotoxicity at 10 µM values.
EXPERIMENTAL_DETAILS: Toxicity liver stage against HepG2, at 10uM
Type: cell-based
Design: test concentration 10 uM, cell line HepG2-A16-CD81EGFP
TEST_PARAMETERS: human, HepG2-A16-CD81EGFP cells; read-out: INHIBITION
Give bare numbers, in %.

compound=NC(=O)c1cc2c(nc1N)CCN(C(=O)C1CCCCC1)C2 unit_name=% value_measured=-21.8
compound=O=C1CCCN1Cc1ncn2c1CN(C(=O)Cc1ccccc1)CCC2 unit_name=% value_measured=6.49
compound="CCNC(=O)COc1ccccc1N1CCCC(C)C1 (stereo not drawn)" unit_name=% value_measured=8.06
compound=Cc1ccc(CN2C[C@H](N(C)Cc3cncnc3)[C@H]3OCCC[C@H]32)o1 unit_name=% value_measured=-149
compound=Cc1noc(C)c1CCCNC(=O)C1CCN(C(C)C)CC1 unit_name=% value_measured=-7.01

Working through the 7 compounds below one at a time, give cytotoxicity at 10 µM for each.
1. O=C(c1cc2ccccc2[nH]1)N1CCCCC1Cn1cccn1 (stereo not drawn)
2. COCCC(=O)Nc1nc2c(OC)cc(F)cc2s1
3. CC(C)c1noc(C(C)N2CCN(CCc3ccncc3)CC2)n1 (stereo not drawn)
4. Cc1nc(CNC(=O)NCC(F)(F)F)oc1C
5. Cc1cnc(CN(C)Cc2cc3c(cc2OC(F)F)OCO3)o1
6. CCOc1ccc2[nH]c(=O)c(CN3CCN(S(N)(=O)=O)CC3)cc2c1
7. CC(C)(CNC(=O)CCOc1cccc(F)c1)C(N)=O

1. 1.27
2. -0.327
3. 2.16
4. -1.72
5. -8.78
6. -6.39
7. -0.704

----------
EXPERIMENTAL_DETAILS: Toxicity liver stage against HepG2, at 10uM
Assay type: cell-based
Parameters: test concentration 10 uM, cell line HepG2-A16-CD81EGFP
TEST_PARAMETERS: human, HepG2-A16-CD81EGFP cells; read-out: INHIBITION
READOUT_TYPE: cytotoxicity at 10 µM (%)
Answers are plain numbers, in %.

molecule=CCCc1cc(C(=O)N(Cc2cccnc2)C[C@@H]2CCC(=O)N2)no1 value_measured=6.82
molecule=CO[C@H]1CC[C@H]2[C@H]1OCCN2C(=O)CCOc1ccccc1 value_measured=-95

Working through the 2 molecules below one at a time, give cytotoxicity at 10 µM for each.
1. COc1cccc(S(=O)(=O)CCN2CCN(CC(F)F)CC2)c1
2. CN1CCN(c2ncnc3c2CCN(Cc2nccn2C)CC3)CC1

[-3.96, -130]

Working through the 6 molecules below one at a time, give cytotoxicity at 10 µM for each.
1. COC(=O)Cn1ccc(=O)c2ccc(OC)cc21
2. CC(C)C(CNCc1cccc2c1OCO2)N1CCOCC1 (stereo unspecified)
3. Cn1cc(CN2C[C@H]3CN(c4cncnc4)C(=O)[C@H]3C2)cn1
4. COc1ccc(CC(=O)N2C[C@H]3CN(Cc4ccccn4)C[C@H]3C2)cc1
5. C[C@H](N)C(=O)N1CCC(c2[nH]ncc2-c2ccccc2)CC1
6. CC(Cn1ccnc1)NC(=O)C1(c2ccc3c(c2)OCCO3)CCCC1 (stereo unspecified)

-20.7
-49.1
-0.0682
3.5
2.4
-2.5

Could you please provide reported cytotoxicity at 10 µM for CN(Cc1ccccc1)CC(C)(C)NC(=O)c1ccon1 ? Thanks!
13
